- Test system: MCF7 cells (ER+ breast cancer)
- METHOD DESCRIPTION: Sulforhodamine B
- Format: cell-based, human
- CONDITION NOTES: Homo sapiens, MCF7, 48 h
ASSAY ENDPOINT: IC50

Record request: IC50 value, item CC(C)(C#N)c1cc(Cn2cncn2)cc(C(C)(C)C#N)c1 [anastrozole, reference compound] > 100 µM

###

- System: MCF12A cells (non-cancerous breast)
- METHOD DESCRIPTION: Sulforhodamine B
- Format: cell-based, human
- CONDITION NOTES: MCF12A (non-cancerous), 48 h exposure, SRB assay
ASSAY ENDPOINT: pIC50
Note on units: pIC50 is unitless, being -log10 of a concentration expressed in mol/L.

Record request: pIC50 value, item N.N.[Cl][Pt][Cl] [cisplatin] 4.37

Taken from paper PMC7221417.
